# TARGET_UNDER_TEST: Luciferin 4-monooxygenase (Photinus pyralis, UniProt P08659)
# Sequence (P08659 whole entry): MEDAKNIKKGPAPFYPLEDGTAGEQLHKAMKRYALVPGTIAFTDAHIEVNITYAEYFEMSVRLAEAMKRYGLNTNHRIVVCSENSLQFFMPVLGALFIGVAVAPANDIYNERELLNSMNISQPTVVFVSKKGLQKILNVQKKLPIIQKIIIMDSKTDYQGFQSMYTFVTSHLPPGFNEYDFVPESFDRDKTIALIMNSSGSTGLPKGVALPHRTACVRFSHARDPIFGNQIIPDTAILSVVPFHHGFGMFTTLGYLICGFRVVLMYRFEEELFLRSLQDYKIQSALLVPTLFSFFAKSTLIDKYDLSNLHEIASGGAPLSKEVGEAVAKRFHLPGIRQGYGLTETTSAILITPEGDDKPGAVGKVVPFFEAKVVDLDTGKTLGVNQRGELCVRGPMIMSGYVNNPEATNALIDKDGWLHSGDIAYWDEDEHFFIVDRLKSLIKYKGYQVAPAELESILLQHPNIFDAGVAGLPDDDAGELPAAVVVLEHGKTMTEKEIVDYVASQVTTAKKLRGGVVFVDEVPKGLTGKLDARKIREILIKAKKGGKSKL
# CONDITION_LABEL: read-out: AC50
# Description: GSK_PKIS: Inhibition of Firefly Luciferase (Data from PubChem: AID 652016) [NIH NCATS]
Would you kindly list AC50 for each of these molecules?
Number only, in µM; omit the unit.

Quick check: AC50 of Cc1ccc2c(-c3ccnc(Nc4cccc(C(F)(F)F)c4)n3)c(-c3ccccc3)nn2n1 [GW829906X] ?
41.1

Can you check Cc1c2ccc(N(C)c3ccnc(Nc4cccc(S(N)(=O)=O)c4)n3)cc2nn1C [GW771127A] next?
13

Can you check c1ccc(COc2ccc(Nc3ncnc4ccc(-c5ccco5)cc34)cc2)cc1 [GW284372X] next?
29.1

Can you check CC1=C(C(=O)Nc2ccc3[nH]ncc3c2)C(c2ccc(F)cc2)N=C(c2ccc(C(F)(F)F)nc2)N1 (stereo unspecified) [GSK-317354A] next?
41.1

Can you check NC(=O)c1cccc(Nc2nccc(Nc3cccc4[nH]ncc34)n2)c1 [GW782612X] next?
13

Can you check COc1cc(N2CCN(C(C)C)CC2)ccc1Nc1nc(Nc2cccc3ncccc23)c2cc[nH]c2n1 [GSK-1511931A] next?
25.9
